B1: 2K2A (parent)
chain: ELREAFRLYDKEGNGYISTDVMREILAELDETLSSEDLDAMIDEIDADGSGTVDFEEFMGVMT

Variants of: B1
protocol summary: folding stability dG (cDNA display proteolysis); higher = more stable
protocol conditions: PBS, room temperature
Tag: Fulfilled if measured folding stability dG is not below 1 kcal/mol, Not fulfilled if it is.

L38I : Fulfilled
S50D : Fulfilled
S35K : Fulfilled
T32Y : Fulfilled
D10G : Not fulfilled
M62N : Not fulfilled

*Q* Form field: folding stability dG at least 1 kcal/mol? Entry: G15F
*A* Not fulfilled

*Q* Form field: folding stability dG at least 1 kcal/mol? Entry: S50H
*A* Fulfilled

*Q* Form field: folding stability dG at least 1 kcal/mol? Entry: D30R
*A* Fulfilled

*Q* Form field: folding stability dG at least 1 kcal/mol? Entry: M62G
*A* Not fulfilled

*Q* Form field: folding stability dG at least 1 kcal/mol? Entry: L38H
*A* Not fulfilled

*Q* Form field: folding stability dG at least 1 kcal/mol? Entry: I42N
*A* Not fulfilled

*Q* Form field: folding stability dG at least 1 kcal/mol? Entry: V61R
*A* Fulfilled

*Q* Form field: folding stability dG at least 1 kcal/mol? Entry: D37Y
*A* Fulfilled

*Q* Form field: folding stability dG at least 1 kcal/mol? Entry: M41D
*A* Not fulfilled
